Experiment: protein stability index of a GFP-peptide fusion (GPS, HEK-293T) (PSI 1-6); higher = more stable;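 further: 24-mer peptide tiles fused after GFP, lentivirally expressed, FACS-sorted into six equal bins by GFP/DsRed ratio, decoded by Illumina sequencing, PSI is the read-weighted mean bin number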
Details: treatment: MLN4924 1 uM, 8 h; c terminus: a fixed tail appended
reported-endpoint: protein stability index
Hey, just send me the number, nothing else.

[ask] Identify the reported protein stability index for the following entry. ESGKEEGMKIDLIDGKGRGVIATK [KMT5A]
[reply] 5.39

[ask] Identify the reported protein stability index for the following entry. VQIYNLSQNIQEDDLQQLQLFTEY [ATL3]
[reply] 2.28

[ask] Identify the reported protein stability index for the following entry. RECGLAAPRFSFNDPSGSEEADFL [IRX6]
[reply] 4.34

[ask] Identify the reported protein stability index for the following entry. TELLAKITNTDVDCLKACQEQIEA [CCND2]
[reply] 4.61

[ask] Identify the reported protein stability index for the following entry. VSQQTGSPGKQPGENSDCHRDSSQ [ZNF8]
[reply] 5.47

[ask] Identify the reported protein stability index for the following entry. PVCPTVCPPGGIHQVTVNESLLAP [KRT71]
[reply] 4.16

[ask] Identify the reported protein stability index for the following entry. QQLDLRWNNVGLLGGRALMNCLPS [LRRC45]
[reply] 2.48

[ask] Identify the reported protein stability index for the following entry. KCMRNGPNALIASLALGDLIYVVI [EDNRA]
[reply] 2.79

[ask] Identify the reported protein stability index for the following entry. GRCTVRDFIHRHCQDQNVPVENFF [SDE2]
[reply] 2.72

[ask] Identify the reported protein stability index for the following entry. LDLSKPNDLWPTMENLLQATKSHV [DYNC2LI1]
[reply] 3

[ask] Identify the reported protein stability index for the following entry. LFSELAEDKENYKKFYEAFSKNLK [HSP90AB1]
[reply] 3.62

[ask] Identify the reported protein stability index for the following entry. ETYIHLLAMKIKVGSDDLERIEAR [PSD2]
[reply] 2.5

[ask] Identify the reported protein stability index for the following entry. AYDLSSVIASGSSVGHNNLIPLAN [CARM1]
[reply] 3.09

[ask] Identify the reported protein stability index for the following entry. SNSLAIAILMKAYQRFRQKSKASF [PTGFR]
[reply] 2.23

----------
Assay: protein stability index of a GFP-peptide fusion (GPS, HEK-293T) (PSI 1-6); higher = more stable
Conditions: treatment: DMSO; c terminus: native
# label = t if protein stability index >= 3 else f

Here are 2 sequences together with their reported answers.
residue-codes	assigned-category
RAKFKRKYKVKLVEKRAFREIQL [NOP53]	f
KQKVMTHVSNGCQLLLGVKGHAF [JUNB]	f

[ask] Check this sequence for protein stability index at or above 3: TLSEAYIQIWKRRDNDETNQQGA [USP39]
[reply] f

[ask] Check this sequence for protein stability index at or above 3: VRQINRKTPVPGKARKKSSCQLL [RAP1B]
[reply] t

----------
Known protein stability index of a selection of sequences
Assay: protein stability index of a GFP-peptide fusion (GPS, HEK-293T) (PSI 1-6); higher = more stable
Conditions: treatment: MLN4924 1 uM, 8 h; c terminus: a fixed tail appended
Hey, just send me the number, nothing else.

See these solved cases before continuing.
residue-codes	protein stability index
TDDQLLALLPSLSHCSQLTTLSFY [PRAME]	2.05
LGLFTLILTEPAQAQKCYRDLALV [INTS3]	2.79
RKKSGDLKKAKVQVERMREVNSRC [FBXO34]	4.38
GTARYMSINTHLGKEQSRRDDLEA [CSNK1G3]	4.63
SEREANDALNAYVCKGLPQHEEIC [INTS3]	4.52
NARRRLKKENKMTWAPKNKGGEER [IRX6]	4.63
NKRAALQALKRKKRFEKQLTQIDG [CHMP4C]	3.9
NARRKLKGAILTTMLATRNFSAAK [CAMK2B]	3.15

Moving on to another sequence below.
[ask] Identify the reported protein stability index for the following entry. VQLSDEMFVFQDGRWVNENCRLQS [CBY2]
[reply] 3.03
